Exercise: for every item that follows, state its recorded recombinant barcode read abundance (log10).
testName: recombinant barcode read abundance after kanamycin selection (control-corrected) (log10(CPM+1)); higher = more efficient recombination; sequences stand for … in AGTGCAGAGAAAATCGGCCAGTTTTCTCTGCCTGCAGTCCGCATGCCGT…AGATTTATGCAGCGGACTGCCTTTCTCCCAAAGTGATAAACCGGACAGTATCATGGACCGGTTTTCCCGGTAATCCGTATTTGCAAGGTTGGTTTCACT; site = the 11-nt target
Numbers only.

Example entries begin here.
sequenceText: GAGGACTCTTGGGTTCTAACCTGTTGCCT (site GAGGACTCTTG)
numericResult: 0.0974

sequenceText: GGAGTGACTTGGGTTCTAACCTGTTGCTT (site GGAGTGACTTA)
numericResult: 0.176

sequenceText: CGGAACACTTGGGTTCTAACCTGTTGCGG (site CGGGACACTCC)
numericResult: 0.908

For each of the sequences below, state recombinant barcode read abundance (log10).
1. GCGACTCCTTGGGTTCTAACCTGTTGCCT (site GCGACTCCTAA)
2. TGAATTACTTGGGTTCTAACCTGTTGCCT (site TGAATTACTAG)
3. AATGGGCCTTGGGTTCTAACCTGTTGCGT (site AATAGGCCTAC)
4. CGAAATGCTTGGGTTCTAACCTGTTGCCT (site CGCAATGCTAG)
5. GACCAGCCTTGGGTTCTAACCTGTTGCAT (site GACCAGCCTAG)
6. TAGCCTACTTGGGTTCTAACCTGTTGCGG (site TAGCCTACTCC)
7. GAGTGCTCTTGGGTTCTAACCTGTTGCAG (site GAGCGCTCTCT)

## Result
0.215
0.102
1.71
0.0184
0.466
1.41
0.676

----------
testName: recombinant UMI read abundance after kanamycin selection (control-corrected) (log10(CPM+1)); higher = more efficient recombination; extreme values may be limits of the assay; sequences stand for … in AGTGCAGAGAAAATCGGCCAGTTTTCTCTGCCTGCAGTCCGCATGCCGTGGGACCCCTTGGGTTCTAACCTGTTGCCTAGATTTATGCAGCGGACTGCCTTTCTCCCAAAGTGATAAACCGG…AGGTTGGTTTCACT; site = the 11-nt donor
Answer each item with its documented recombinant UMI read abundance (log10).
Give bare numbers.

// below: answered sequences
sequenceText: AGTCTAGCATGGACCGGTTTTCCCGGTAATCCGTATTTGTT (site AGCCTAGCTAA)
numericResult: 0.0159

sequenceText: GGGAATACATGGACCGGTTTTCCCGGTAATCCGTATTTGCA (site AGGAAGACTTG)
numericResult: 0

We next turn to a different sequence, shown below.
## Task Could you please provide reported recombinant UMI read abundance (log10) for CGGGAGGCATGGACCGGTTTTCCCGGTAATCCGTATTTGCC (site CGGGAGCCTGG) ? Thanks!
## Result 0
